Listing of entries alongside the reported Wheal Area.
# Tested on: anaesthesized rats
# procedure_text: wheal test, intradermal injection
# Type: in vivo, rat
# run_conditions: 10 ug peptide intradermally
Starred links: 1 amine or outer side, 2 acyl side, 3 side chain; linkers in the order of their positions; H or OH if unused. Non-standard residues stand in square brackets, D forms with d. Residues, ends and D or L forms follow the SMILES beside them. *: point of attachment. X3 = O=C(N[C@H]1CC[C@H](C[C@@H](N[*:1])C(=O)[*:2])CC1)c1cnccn1; dPhe(4-Cl) = N[C@H](Cc1ccc(Cl)cc1)C(=O)O; d2Nal = N[C@H](Cc1ccc2ccccc2c1)C(=O)O; Lys(iPr) = CC(C)NCCCC[C@H](N)C(=O)O; Orn(iPr) = CC(C)NCCC[C@H](N)C(=O)O; d3Pal = N[C@H](Cc1cccnc1)C(=O)O; Picolinoyl = O=C(c1ccccn1)*
// return numeric value only (unit: mm^2 /10 μg, not printed)

molecule="CC(=O)N[C@H](Cc1ccc2ccccc2c1)C(=O)N[C@H](Cc1cccnc1)C(=O)N[C@H](Cc1ccc(Cl)cc1)C(=O)N[C@@H](CO)C(=O)N[C@@H](CCCCNC(=O)c1ccccn1)C(=O)N[C@H](CCCCNC(=O)c1ccccn1)C(=O)N[C@@H](CC(C)C)C(=O)N[C@@H](CCCNC(C)C)C(=O)N1CCC[C@H]1C(=O)N[C@H](C)C(N)=O [compound 26364] (Ac-[d2Nal][d3Pal][dPhe(4-Cl)]SK(Picolinoyl)[dK](Picolinoyl)L[Orn(iPr)]P[dA]-NH2)" reported_property="Wheal Area" value=116.2

## Input Give its Wheal Area value. Item: CC(=O)N[C@H](Cc1ccc2ccccc2c1)C(=O)N[C@H](Cc1ccc(Cl)cc1)C(=O)N[C@H](Cc1cccnc1)C(=O)N[C@@H](CO)C(=O)N[C@@H](CCCCNC(=O)c1ccccn1)C(=O)N[C@H](C[C@H]1CC[C@H](NC(=O)c2cnccn2)CC1)C(=O)N[C@@H](CC(C)C)C(=O)N[C@@H](CCCCNC(C)C)C(=O)N1CCC[C@H]1C(=O)N[C@H](C)C(N)=O [IV-5] (Ac-[d2Nal][dPhe(4-Cl)][d3Pal]SK(Picolinoyl)[X3]L[Lys(iPr)]P[dA]-NH2)
## Output 106.3
